Source listed as the supplement of paper PMC10307832.

System: UMC-11
ASSAY NAME: relative viability (nuclei count vs DMSO), 5 days (fraction); higher = more cells survive
RUN PARAMETERS: first compound 0.08 µM
VALUE KIND: relative viability

Worked examples follow.
O=c1[nH]c2ccccc2n1C1CCN(CCCC(c2ccc(F)cc2)c2ccc(F)cc2)CC1 [Pimozide] + CCNC(=O)c1noc(-c2cc(C(C)C)c(O)cc2O)c1-c1ccc(CN2CCOCC2)cc1 [Luminespib] (partner 0.01 µM) : 1.2
O=c1[nH]c2ccccc2n1C1CCN(CCCC(c2ccc(F)cc2)c2ccc(F)cc2)CC1 [Pimozide] + O=C(c1cc(Cc2n[nH]c(=O)c3ccccc23)ccc1F)N1CCN(C(=O)C2CC2)CC1 [Olaparib] (partner 8 µM) : 0.394
Cc1cnc(-c2cnc(NCCNc3ccc(C#N)cn3)nc2-c2ccc(Cl)cc2Cl)[nH]1 + CCNC(=O)c1noc(-c2cc(C(C)C)c(O)cc2O)c1-c1ccc(CN2CCOCC2)cc1 [Luminespib] (partner 0.01 µM) : 1.02
O=c1[nH]c2ccccc2n1C1CCN(CCCC(c2ccc(F)cc2)c2ccc(F)cc2)CC1 [Pimozide] + CS(=O)(=O)CCNCc1ccc(-c2ccc3ncnc(Nc4ccc(OCc5cccc(F)c5)c(Cl)c4)c3c2)o1 [Lapatinib] (partner 2 µM) : 1.07
Cc1cnc(-c2cnc(NCCNc3ccc(C#N)cn3)nc2-c2ccc(Cl)cc2Cl)[nH]1 + COc1cccc2cc(-c3nc([C@H]4CC[C@H](C(=O)O)CC4)n4ncnc(N)c34)[nH]c12 [OSI-027] (partner 0.5 µM) : 0.594

Give the measured relative viability of Cc1cnc(-c2cnc(NCCNc3ccc(C#N)cn3)nc2-c2ccc(Cl)cc2Cl)[nH]1 + Nc1nc2[nH]cc(CCc3ccc(C(=O)N[C@@H](CCC(=O)O)C(=O)O)cc3)c2c(=O)[nH]1 [Pemetrexed] (partner 0.2 µM) .
0.867

Give the measured relative viability of O=c1[nH]c2ccccc2n1C1CCN(CCCC(c2ccc(F)cc2)c2ccc(F)cc2)CC1 [Pimozide] + Nc1ncn([C@H]2C[C@H](O)[C@@H](CO)O2)c(=O)n1 [Decitabine] (partner 2 µM) .
0.638

Give the measured relative viability of O=c1[nH]c2ccccc2n1C1CCN(CCCC(c2ccc(F)cc2)c2ccc(F)cc2)CC1 [Pimozide] + CS(=O)(=O)N1CCN(Cc2cc3nc(-c4cccc5[nH]ncc45)nc(N4CCOCC4)c3s2)CC1 [Pictilisib] (partner 1 µM) .
0.79

Give the measured relative viability of Cc1cnc(-c2cnc(NCCNc3ccc(C#N)cn3)nc2-c2ccc(Cl)cc2Cl)[nH]1 + O=C(CCCCCCC(=O)Nc1ccccc1)NO [Vorinostat] (partner 1 µM) .
0.403
